- Tested on: SF-268 CNS
- assayProcedure: NCI tumour cell line growth inhibition, 48 h
assayMetric: TGI

Past entries and their recorded results:
>  <molecule>
COC(=O)[C@@H](C)C[C@H](Cc1ccccc1)NC(=O)c1csc([C@@H](C[C@H](C(C)C)N(C)C(=O)[C@@H](NC(=O)CN(C)C)C2CC2)OC(C)=O)n1

>  <TGI>
> 16.5 µM

$$$$
>  <molecule>
COc1ccc2c(c1)/C(=N/OC(C)=O)c1c-2c(Nc2ccc(/C(C)=N/OC(C)=O)cc2)nc2ccccc12

>  <TGI>
> 100 µM

$$$$
>  <molecule>
Cn1cc(C2=C(c3cn(C)c4cc(Cl)ccc34)C(=O)NC2=O)c2ccccc21

>  <TGI>
> 15.1 µM

$$$$
>  <molecule>
CC(=O)OC1COC(n2c(N)c(C#N)c(-c3ccccc3)c(C#N)c2=S)C(OC(C)=O)C1OC(C)=O (stereo not drawn)

>  <TGI>
> 100 µM

$$$$
>  <molecule>
c1cc[c]([Sn]([O]c2cccc3cccnc23)([c]2ccccc2)[c]2ccccc2)cc1

>  <TGI>
0.0275 µM

$$$$

Entry c1ccc2c(c1)[C@@H]1O[C@@H]1[C@@]13O[C@@]21[C@H]1O[C@H]1c1ccccc13 , tested on SF-268 CNS, has a reported TGI of 28.3 µM

Hey, SF-268 CNS data for COc1cc(C2CC(c3cc(Cl)c(C)cc3O)=NN2c2ccc(S(N)(=O)=O)cc2)cc(OC)c1OC (stereo not drawn) : TGI came out at 34.2 µM

Assay SF-268 CNS, sample COC(=O)C12CC(NC(=O)c3csc([C@@H](C[C@H](C(C)C)N(C)C(=O)[C@@H](NC(=O)[C@H]4CCCCN4C)C(C)C)OC(C)=O)n3)(C1)C2 , TGI read: > 33.3 µM

====

- Tested on: TK-10 renal
- assayProcedure: NCI tumour cell line growth inhibition, 48 h
assayMetric: TGI

>  <compound>
O=[P+](O)c1cc2c3ccccc3ccc2c2ccccc12

>  <observedResult>
> 100 µM

$$$$
>  <compound>
CC(=O)OCC12C(OC(C)=O)C[C@@H](C)C3(CC(c4ccoc4)OC3=O)C1CCC(OC(C)=O)C21CO1 (some centres not stated)

>  <observedResult>
> 100 µM

$$$$
>  <compound>
CC(=O)N1C(=O)/C(=C\C(=O)c2ccc(Cl)cc2)c2ccccc21

>  <observedResult>
30.5 µM

$$$$
>  <compound>
O=C1/C(=C/c2ccccc2)CN(C(=O)Oc2ccccc2)C/C1=C\c1ccccc1

>  <observedResult>
42.5 µM

$$$$
>  <compound>
CCOC(=O)CCC(NC(=O)c1ccc(Nc2nc3cc(N)cc(N)c3nc2-c2ccccc2)cc1)C(=O)OCC (configuration not stated)

>  <observedResult>
> 87.3 µM

$$$$

What the record says about C=C(C)[C@@H]1CC[C@@H]2C(=CC[C@]3(C)C([C@H](C)CC/C=C(/C)C(=O)O)CC[C@@]23C)[C@@]1(C)CCC(=O)O (some centres not stated) : TGI is > 100 µM

Kindly note the recorded TGI for COc1ccc2c(-c3csc(-c4c[nH]c5ccccc45)n3)c[nH]c2c1 , which is 23.5 µM

Just so you know, measured TGI for CCOC(=O)/C=C/C(Br)=C(Br)/C=C/C(=O)OCC came out at 28.1 µM

Reported TGI of O=C(CN1CCN(c2cc3c(cc2F)c(=O)c(C(=O)O)cn3C2CC2)CC1)Nc1ccc(C(=O)/C=C/c2ccccc2)cc1 : > 100 µM
